- TARGET ENTITY: human Akt2 kinase (kinase domain residues K146-R480) (Homo sapiens)
- Construct: human Akt2 kinase domain residues K146-R480; made in house
- Sequence (P31751 146-480): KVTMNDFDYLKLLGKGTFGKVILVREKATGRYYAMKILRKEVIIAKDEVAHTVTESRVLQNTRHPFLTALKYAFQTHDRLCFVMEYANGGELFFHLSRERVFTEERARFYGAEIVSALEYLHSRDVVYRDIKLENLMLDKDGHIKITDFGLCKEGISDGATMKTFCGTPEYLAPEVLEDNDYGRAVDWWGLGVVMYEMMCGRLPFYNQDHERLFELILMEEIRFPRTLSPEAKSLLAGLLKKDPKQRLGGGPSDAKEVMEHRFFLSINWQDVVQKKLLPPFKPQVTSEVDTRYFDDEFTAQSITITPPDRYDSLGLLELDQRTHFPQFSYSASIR
- ASSAY METHOD TEXT: Akt2 kinase assay, Luciferase-Coupled Chemiluminescent Kinase assay (LCCA)
- Type: biochemical
- CONDITION CONTEXT: 2 μM ATP, 10 nM Akt2; read-out: Akt-2 inhibition IC50
MEASURED ATTRIBUTE: IC50

COMPOUND | REPORTED MEASUREMENT
C[C@H]1CN(c2ncnc3[nH]nc(Br)c23)CCN1Cc1ccc(Cl)cc1 | > 2000 nM
CN(C)CCOC(c1ccc(Cl)cc1)C1CCN(c2ncnc3[nH]nc(Br)c23)CC1 (stereo not shown) | 50 to 500 nM
Brc1n[nH]c2ncnc(N3CCN(Cc4cccnc4)CC3)c12 | > 2000 nM
Fc1ccc(CN2CCN(c3ncnc4[nH]nc(Br)c34)CC2)c(Cl)c1 | > 2000 nM
CC(C)(C)c1ccc(CN2CCN(c3ncnc4[nH]nc(Br)c34)CC2)cc1 | > 2000 nM
O=C(c1ccco1)N1CCN(c2ncnc3[nH]nc(Br)c23)CC1 | > 2000 nM
O=C(/C=C/c1ccccc1)N1CCN(c2ncnc3[nH]nc(Br)c23)CC1 | > 2000 nM
CC(c1ccccc1)N1CCN(c2ncnc3[nH]nc(Br)c23)CC1 (stereo not shown) | > 2000 nM
Brc1n[nH]c2ncnc(N3CCN(Cc4ccncc4)CC3)c12 | > 2000 nM
Cc1cccc(CN2CCN(c3ncnc4[nH]nc(Br)c34)CC2)c1 | > 2000 nM
